TARGET DESC: UniProtKB Q96EB6
Sequence (Q96EB6 whole entry): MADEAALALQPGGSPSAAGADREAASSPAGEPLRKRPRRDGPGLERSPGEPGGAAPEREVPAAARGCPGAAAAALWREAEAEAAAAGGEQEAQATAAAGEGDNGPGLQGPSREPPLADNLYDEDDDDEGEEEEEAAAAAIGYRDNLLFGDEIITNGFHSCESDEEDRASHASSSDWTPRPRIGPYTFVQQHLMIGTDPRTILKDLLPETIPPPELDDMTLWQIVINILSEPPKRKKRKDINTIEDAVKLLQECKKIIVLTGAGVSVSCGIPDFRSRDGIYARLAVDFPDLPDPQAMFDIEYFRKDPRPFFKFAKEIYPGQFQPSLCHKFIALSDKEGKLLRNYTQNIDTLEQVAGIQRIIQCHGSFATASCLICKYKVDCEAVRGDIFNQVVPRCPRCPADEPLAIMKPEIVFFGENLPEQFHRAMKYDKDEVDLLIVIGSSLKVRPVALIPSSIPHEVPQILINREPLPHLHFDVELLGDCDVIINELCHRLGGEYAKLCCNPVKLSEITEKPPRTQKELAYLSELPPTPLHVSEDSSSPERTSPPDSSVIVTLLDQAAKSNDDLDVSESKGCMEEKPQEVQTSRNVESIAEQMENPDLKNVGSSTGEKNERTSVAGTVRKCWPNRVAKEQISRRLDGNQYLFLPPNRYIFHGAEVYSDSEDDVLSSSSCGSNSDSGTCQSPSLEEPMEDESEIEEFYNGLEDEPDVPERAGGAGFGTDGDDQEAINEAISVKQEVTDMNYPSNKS
TEST NAME: Inhibition of recombinant SIRT1 (unknown origin) using Ac-Arg-Leu-Ile-Lys-(Ac) AMC as substrate in presence of NAD+
Task for the reader: assign each of the following compounds its reported pIC50.
Numbers only, as −log10 of the molar value.

INSERT INTO assay_data (smiles_notation, measurement) VALUES
  ('O=C(O)CCNC(=S)NCCCNc1nc(Nc2ccccc2)nc(Nc2ccccc2Cl)n1', 4.66);

What does the record list as pIC50 for COc1cc(Nc2nc(NCCCNC(=S)NCCC(=O)O)nc(Nc3ccccc3Cl)n2)cc(OC)c1 ?
4.02

###

Task for the reader: assign each of the following molecules its reported IC50.
TARGET DESC: NAD-dependent protein deacetylase sirtuin-2 (Homo sapiens, UniProt Q8IXJ6)
Sequence (Q8IXJ6 whole entry): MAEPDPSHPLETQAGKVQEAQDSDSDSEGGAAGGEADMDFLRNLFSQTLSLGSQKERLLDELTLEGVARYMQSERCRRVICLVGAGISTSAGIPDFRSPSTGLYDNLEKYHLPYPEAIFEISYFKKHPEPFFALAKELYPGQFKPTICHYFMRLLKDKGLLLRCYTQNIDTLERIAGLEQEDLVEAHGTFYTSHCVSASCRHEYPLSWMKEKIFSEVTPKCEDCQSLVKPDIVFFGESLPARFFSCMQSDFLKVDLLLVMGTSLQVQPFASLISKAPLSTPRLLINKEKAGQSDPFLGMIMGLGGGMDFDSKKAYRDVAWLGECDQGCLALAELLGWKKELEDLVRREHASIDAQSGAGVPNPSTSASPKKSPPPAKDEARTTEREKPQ
TEST NAME: Inhibition of human recombinant SIRT2 using Ac-Glu-Thr-Asp-Lys (Dec)-AM as substrate in presence of NAD+
Answers are plain numbers, in µM.

INSERT INTO measurements (smiles_notation, observed_property, reading_unit, measurement) VALUES
  ('COc1cc(Nc2nc(NCCCNC(=S)NCCC(=O)O)nc(Nc3ccccc3Cl)n2)cc(OC)c1', 'IC50', 'µM', 111);

Now examine the next entry.
What does the record list as IC50 for O=C(O)CCNC(=S)NCCCNc1nc(Nc2ccccc2)nc(Nc2ccccc2Cl)n1 ?
136

###

Task for the reader: assign each of the following molecules its reported pIC50.
TARGET DESC: NAD-dependent protein deacylase sirtuin-5, mitochondrial (Homo sapiens)
TEST NAME: Inhibition of human recombinant SIRT5 (34 to 269 residues) using Ac-Leu-Gly-Ser-Lys (Su)-AMC as fluorogenic substrate incubated for 2 hrs in presence of NAD+ at 50 uM by fluorescence based analysis
Answers are plain numbers, as −log10 of the molar value.

INSERT INTO measurements (smiles_notation, measurement) VALUES
  ('COc1cc(Nc2nc(NCCCNC(=S)NCCC(=O)O)nc(Nc3ccccc3Cl)n2)cc(OC)c1', 5.32);

What does the record list as pIC50 for O=C(O)CCNC(=S)NCCCNc1nc(Nc2ccccc2)nc(Nc2ccccc2Cl)n1 ?
5.64

###

TARGET DESC: NAD-dependent protein deacylase sirtuin-5, mitochondrial (Homo sapiens, UniProt Q9NXA8)
Sequence (Q9NXA8 whole entry, the tested form may be a part): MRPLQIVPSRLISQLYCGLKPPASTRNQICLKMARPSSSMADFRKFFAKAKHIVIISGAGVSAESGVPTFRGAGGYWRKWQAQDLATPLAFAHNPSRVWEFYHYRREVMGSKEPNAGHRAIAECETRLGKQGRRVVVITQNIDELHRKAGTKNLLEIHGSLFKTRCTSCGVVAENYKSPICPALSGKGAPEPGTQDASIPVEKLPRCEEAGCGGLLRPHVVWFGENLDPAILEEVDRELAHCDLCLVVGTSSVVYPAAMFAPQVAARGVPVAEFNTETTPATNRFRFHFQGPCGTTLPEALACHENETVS
TEST NAME: Inhibition of human recombinant SIRT5 (34 to 269 residues) using Ac-Leu-Gly-Ser-Lys (Su)-AMC as fluorogenic substrate incubated for 2 hrs in presence of NAD+ by fluorescence based analysis
Task for the reader: assign each of the following compounds its reported pIC50.
Give bare numbers, as −log10 of the molar value.

Check out these entries, answers already filled in.
INSERT INTO measurements (compound, measurement) VALUES
  ('O=C(O)CCNC(=S)NCCCNc1nc(Nc2ccccc2)nc(Nc2ccccc2Cl)n1', 5.27),
  ('CC(CCc1ccccc1)Nc1nc(NCCCNC(=S)NCCC(=O)O)nc(Nc2ccccc2Cl)n1 (stereo not given)', 4.57),
  ('CC[C@H](Nc1nc(NCCCNC(=S)NCCC(=O)O)nc(Nc2ccccc2Cl)n1)c1ccccc1', 5.03),
  ('COc1cc(Nc2nc(NCCCNC(=S)NCCC(=O)O)nc(Nc3ccccc3Cl)n2)cc(OC)c1', 5.39);

Now examine the next entry.
What does the record list as pIC50 for Cc1c(Br)cccc1Nc1nc(NCCCNC(=S)NCCC(=O)O)nc(Nc2ccccc2Cl)n1 ?
4.30

###

Task for the reader: assign each of the following compounds its reported IC50.
TARGET DESC: NAD-dependent protein deacylase sirtuin-5, mitochondrial (Homo sapiens)
TEST NAME: Inhibition of human recombinant SIRT5 (34 to 269 residues) using Ac-Leu-Gly-Ser-Lys (Su)-AMC as fluorogenic substrate incubated for 2 hrs in presence of NAD+ at 800 uM by fluorescence based analysis
Answers are plain numbers, in µM.

INSERT INTO measurements (smiles_notation, measurement) VALUES
  ('COc1cc(Nc2nc(NCCCNC(=S)NCCC(=O)O)nc(Nc3ccccc3Cl)n2)cc(OC)c1', 4.66);

Find the measured IC50: item O=C(O)CCNC(=S)NCCCNc1nc(Nc2ccccc2)nc(Nc2ccccc2Cl)n1 , target or system NAD-dependent protein deacylase sirtuin-5, mitochondrial (Homo sapiens).
6.74

###

Task for the reader: assign each of the following compounds its reported pIC50.
TARGET DESC: NAD-dependent protein deacylase sirtuin-5, mitochondrial (Homo sapiens)
TEST NAME: Inhibition of human recombinant SIRT5 (34 to 269 residues) using Ac-Leu-Gly-Ser-Lys (Su)-AMC as fluorogenic substrate incubated for 2 hrs in presence of NAD+ by fluorescence based analysis
Answers are plain numbers, as −log10 of the molar value.

Check out these entries, answers already filled in.
INSERT INTO assay_data (compound, observed_property, measurement) VALUES
  ('O=C(O)CCNC(=S)NCCCNc1nc(Nc2ccccc2Cl)nc(NC2CCC2)n1', 'pIC50', 4.60),
  ('O=C(O)CCNC(=S)NCCCNc1nc(Nc2ccccc2Cl)nc(N2CCCC2c2ccccc2)n1 (centres undefined)', 'pIC50', 4.89),
  ('O=C(O)CCNC(=S)NCCCNc1nc(NCCc2ccccc2)nc(Nc2ccccc2Cl)n1', 'pIC50', 5.16),
  ('O=C(O)CCNC(=S)NCCCNc1nc(NCc2ccccc2)nc(Nc2ccccc2Cl)n1', 'pIC50', 4.84),
  ('O=C(O)CCNC(=S)NCCCNc1nc(Nc2ccccc2Cl)nc(NC2CCCC2)n1', 'pIC50', 4.71);

List pIC50 for every entry below, keeping the order given.
1. CC(C)(C)OC(=O)[C@H](Nc1nc(NCCCNC(=S)NCCC(=O)O)nc(Nc2ccccc2Cl)n1)c1ccccc1
2. Cc1cccc(Nc2nc(NCCCNC(=S)NCCC(=O)O)nc(Nc3ccccc3Cl)n2)c1Br
3. O=C(O)CCNC(=S)NCCCNc1nc(Nc2cc(F)cc(F)c2)nc(Nc2ccccc2Cl)n1
4. O=C(O)CCNC(=S)NCCCNc1nc(Nc2ccccc2Cl)nc(NC2CC2)n1

4.67
5.21
4.67
4.74

###

Task for the reader: assign each of the following molecules its reported pIC50.
TARGET DESC: NAD-dependent protein deacylase sirtuin-5, mitochondrial (Homo sapiens, UniProt Q9NXA8)
TEST NAME: Competitive inhibition of human recombinant SIRT5 (34 to 269 residues) incubated for 2 hrs in presence of 300 uM of fluorogenic substrate Ac-Leu-Gly-Ser-Lys (Su)-AMC by fluorescence based analysis
One number for each entry, as −log10 of the molar value.

List pIC50 for every entry below, keeping the order given.
1. COc1cc(Nc2nc(NCCCNC(=S)NCCC(=O)O)nc(Nc3ccccc3Cl)n2)cc(OC)c1
2. O=C(O)CCNC(=S)NCCCNc1nc(Nc2ccccc2)nc(Nc2ccccc2Cl)n1

4.37
4.53

###

TARGET DESC: UniProt:Q9NXA8
TEST NAME: Inhibition of human recombinant SIRT5 (34 to 269 residues) using Ac-Leu-Gly-Ser-Lys (Su)-AMC as fluorogenic substrate incubated for 2 hrs in presence of NAD+ at 400 uM by fluorescence based analysis
OBSERVED PROPERTY: pIC50
One number for each entry, as −log10 of the molar value.

List pIC50 for every entry below, keeping the order given.
1. COc1cc(Nc2nc(NCCCNC(=S)NCCC(=O)O)nc(Nc3ccccc3Cl)n2)cc(OC)c1
2. O=C(O)CCNC(=S)NCCCNc1nc(Nc2ccccc2)nc(Nc2ccccc2Cl)n1

1: 5.46; 2: 5.39

Source listed as ChEMBL document CHEMBL5370576.
